Recorded values, source patent US10392383B2.

Test system: primary human mesenchymal stem cells (hMSCs)
Experiment: Induction of chondrogenesis in human mesenchymal stem cells (nodule staining with Rhodamine B / Nile Red)
Type: cell-based
Conditions: TGF-β3 (10 ng/mL) as positive control, read-out: Max. Activity as % TGF-β3 activity
# label = criterion met if Emax >= 80% else criterion not met

{"smiles-code": "Fc1cccc(-c2cccc3[nH]c(-c4n[nH]c5ccc(-c6cncc(OC7CCNCC7)c6)nc45)nc23)c1", "class": "criterion not met"}
{"smiles-code": "Clc1ccc(-c2cccc3[nH]c(-c4n[nH]c5ccc(-c6cncc(CN7CCCC7)c6)nc45)nc23)s1", "class": "criterion met"}
{"smiles-code": "CCC(=O)Nc1cncc(-c2ccc3[nH]nc(-c4nc5c(-c6cccc(F)c6)cccc5[nH]4)c3n2)c1", "class": "criterion met"}
{"smiles-code": "CCNCc1cncc(-c2ccc3[nH]nc(-c4nc5c(-c6ccoc6)cccc5[nH]4)c3n2)c1", "class": "criterion not met"}
{"smiles-code": "CC(C)Nc1cncc(-c2ccc3[nH]nc(-c4nc5c(-c6cccnc6)cccc5[nH]4)c3n2)c1", "class": "criterion not met"}
{"smiles-code": "Cc1ccncc1-c1ccc2[nH]nc(-c3nc4c(-c5cc(F)cc(CNS(C)(=O)=O)c5)cccc4[nH]3)c2n1", "class": "criterion not met"}

* * *

Tested on: primary human mesenchymal stem cells (hMSCs)
Experiment: Induction of chondrogenesis in human mesenchymal stem cells (nodule staining with Rhodamine B / Nile Red)
Assay type: cell-based
Details: TGF-β3 (10 ng/mL) as positive control, read-out: Max. Activity as % TGF-β3 activity
Please note: Condition met applies when Emax is 50% or greater, and Condition not met applies otherwise.

{"molecule": "Cn1cc(-c2ccc3[nH]nc(-c4nc5c(-c6cccc(F)c6)cccc5[nH]4)c3n2)cn1 [Compound 508]", "class": "Condition not met"}
{"molecule": "O=C(Nc1cncc(-c2ccc3[nH]nc(-c4nc5c(-c6ccc(Cl)s6)cccc5[nH]4)c3n2)c1)C1CCC1 [Compound 1056]", "class": "Condition met"}
{"molecule": "CC(C)C(=O)Nc1cncc(-c2ccc3[nH]nc(-c4nc5c(-c6cccnc6)cccc5[nH]4)c3n2)c1 [Compound 93]", "class": "Condition not met"}

* * *

Test system: primary human mesenchymal stem cells (hMSCs)
Assay: Induction of chondrogenesis in human mesenchymal stem cells (nodule staining with Rhodamine B / Nile Red)
Type: cell-based
Conditions: TGF-β3 (10 ng/mL) as positive control, read-out: Max. Activity as % TGF-β3 activity

{"smiles-code": "CC(C)(C)C(=O)Nc1cncc(-c2ccc3[nH]nc(-c4nc5c(-c6ccc(Cl)s6)cccc5[nH]4)c3n2)c1", "target-or-system": "primary human mesenchymal stem cells (hMSCs)", "Emax": "65%"}
{"smiles-code": "CN(C)CCOc1cncc(-c2ccc3[nH]nc(-c4nc5c(-c6cccc(F)c6)cccc5[nH]4)c3n2)c1", "target-or-system": "primary human mesenchymal stem cells (hMSCs)", "Emax": "55%"}
{"smiles-code": "COc1cccc(-c2cccc3[nH]c(-c4n[nH]c5ccc(-c6cccnc6)nc45)nc23)c1", "target-or-system": "primary human mesenchymal stem cells (hMSCs)", "Emax": "70%"}
{"smiles-code": "Cc1ccncc1-c1ccc2[nH]nc(-c3nc4c(-c5ccncc5)cccc4[nH]3)c2n1", "target-or-system": "primary human mesenchymal stem cells (hMSCs)", "Emax": "45%"}
{"smiles-code": "Cc1cn(-c2cccc3[nH]c(-c4n[nH]c5ccc(-c6cncc(NC(=O)C7CCC7)c6)nc45)nc23)cn1", "target-or-system": "primary human mesenchymal stem cells (hMSCs)", "Emax": "32%"}
{"smiles-code": "CC(C)CC(=O)Nc1cncc(-c2ccc3[nH]nc(-c4nc5c(-c6cccc(F)c6)cccc5[nH]4)c3n2)c1", "target-or-system": "primary human mesenchymal stem cells (hMSCs)", "Emax": "57%"}
{"smiles-code": "O=C(Nc1cncc(-c2ccc3[nH]nc(-c4nc5c(-c6ccc(F)cc6)cccc5[nH]4)c3n2)c1)C1CCC1", "target-or-system": "primary human mesenchymal stem cells (hMSCs)", "Emax": "69%"}
{"smiles-code": "Fc1cccc(-c2cccc3[nH]c(-c4n[nH]c5ccc(C6=CCNCC6)nc45)nc23)c1", "target-or-system": "primary human mesenchymal stem cells (hMSCs)", "Emax": "42%"}
{"smiles-code": "c1cncc(-c2ccc3[nH]nc(-c4nc5ccccc5[nH]4)c3n2)c1", "target-or-system": "primary human mesenchymal stem cells (hMSCs)", "Emax": "85%"}
{"smiles-code": "Cc1cn(-c2cccc3[nH]c(-c4n[nH]c5ccc(-c6cncc(NC(=O)CC(C)C)c6)nc45)nc23)cn1", "target-or-system": "primary human mesenchymal stem cells (hMSCs)", "Emax": "44%"}
{"smiles-code": "Cc1ccncc1-c1ccc2[nH]nc(-c3nc4c(-c5ccsc5)cccc4[nH]3)c2n1", "target-or-system": "primary human mesenchymal stem cells (hMSCs)", "Emax": "32%"}
{"smiles-code": "CCCC(=O)Nc1cncc(-c2ccc3[nH]nc(-c4nc5c(-c6ccncc6)cccc5[nH]4)c3n2)c1", "target-or-system": "primary human mesenchymal stem cells (hMSCs)", "Emax": "59%"}
